biological target: UniProt:Q00534; experiment: Phospho-Serine 795 Rb ELISA assay in MV4-11 cells; conditions: overnight treatment, phospho-Rb S795, read-out: CDK6 pRB S795 ELISA MV4-11 cells IC50
Sequence (Q00534 whole entry): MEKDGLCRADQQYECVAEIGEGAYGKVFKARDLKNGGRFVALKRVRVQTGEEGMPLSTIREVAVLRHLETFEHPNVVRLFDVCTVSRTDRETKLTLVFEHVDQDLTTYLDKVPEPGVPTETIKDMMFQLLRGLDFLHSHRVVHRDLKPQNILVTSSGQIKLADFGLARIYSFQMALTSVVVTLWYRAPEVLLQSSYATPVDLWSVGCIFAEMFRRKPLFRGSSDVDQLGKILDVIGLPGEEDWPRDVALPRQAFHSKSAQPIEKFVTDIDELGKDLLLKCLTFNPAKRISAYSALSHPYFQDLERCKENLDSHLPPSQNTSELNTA
Sequence (P30281 whole entry partner): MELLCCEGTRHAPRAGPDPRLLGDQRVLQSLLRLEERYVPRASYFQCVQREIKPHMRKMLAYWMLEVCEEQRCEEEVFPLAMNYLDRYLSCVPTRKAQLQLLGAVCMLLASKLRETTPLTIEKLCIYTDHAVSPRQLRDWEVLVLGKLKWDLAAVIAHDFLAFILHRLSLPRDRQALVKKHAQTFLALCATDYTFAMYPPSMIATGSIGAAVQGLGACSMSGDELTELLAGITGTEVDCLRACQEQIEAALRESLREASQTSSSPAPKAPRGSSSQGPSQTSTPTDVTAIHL
Structures can show the parent of a compound that is named as a salt.
Here, each record is paired with measured IC50 data.
RECORDED_ENDPOINT: IC50

>  <COMPOUND>
CNCC(=O)N1CC[C@@H](Nc2ncc(F)c(-c3cc(F)c4nc(C)n(C(C)C)c4c3)n2)[C@H](O)C1

>  <RECORDED_ENDPOINT>
IC50

>  <OBSERVED>
1320 nM

$$$$
>  <COMPOUND>
CC(C)n1c(CN(C)C)nc2c(F)cc(-c3nc(N[C@@H]4CCOC[C@H]4O)ncc3Cl)cc21

>  <RECORDED_ENDPOINT>
IC50

>  <OBSERVED>
118 nM

$$$$
>  <COMPOUND>
CCc1nc2c(F)cc(-c3nc(N[C@@H]4CCN(S(C)(=O)=O)C[C@H]4O)ncc3Cl)cc2n1C1COC1

>  <RECORDED_ENDPOINT>
IC50

>  <OBSERVED>
287 nM

$$$$
>  <COMPOUND>
COC(=O)N1CC[C@@H](Nc2ncc(F)c(-c3cc(F)c4nc(C)n(C(C)C)c4c3)n2)[C@H](O)C1

>  <RECORDED_ENDPOINT>
IC50

>  <OBSERVED>
576 nM

$$$$
>  <COMPOUND>
Cc1nc2c(F)cc(-c3nc(N[C@@H]4CCN(S(C)(=O)=O)C[C@H]4O)ncc3Cl)cc2n1CC(C)N (stereo partly shown)

>  <RECORDED_ENDPOINT>
IC50

>  <OBSERVED>
346 nM

$$$$
>  <COMPOUND>
CC(C)n1c(CN2CCC2)nc2c(F)cc(-c3nc(N[C@@H]4CCOC[C@H]4O)ncc3Cl)cc21

>  <RECORDED_ENDPOINT>
IC50

>  <OBSERVED>
409 nM

$$$$
>  <COMPOUND>
Cc1nc2cc(Cl)c(-c3nc(N[C@@H]4CCN(S(C)(=O)=O)C[C@H]4O)ncc3F)cc2n1C(C)C

>  <RECORDED_ENDPOINT>
IC50

>  <OBSERVED>
1380 nM

$$$$
>  <COMPOUND>
CN(C)CCN1CC[C@@H](Nc2ncc(Cl)c(-c3cc(F)c4ncn(C(C)(C)C)c4c3)n2)[C@H](O)C1 [Example F06, formic acid salt]

>  <RECORDED_ENDPOINT>
IC50

>  <OBSERVED>
134 nM

$$$$
>  <COMPOUND>
Cc1nc2c(F)cc(-c3nc(N[C@@H]4CCN(S(C)(=O)=O)C[C@H]4O)ncc3C#N)cc2n1C(C)C

>  <RECORDED_ENDPOINT>
IC50

>  <OBSERVED>
129 nM

$$$$
>  <COMPOUND>
Cc1cnc(N[C@@H]2CCN(S(C)(=O)=O)C[C@H]2O)nc1-c1cc(F)c2nc(C)n(C(C)C)c2c1

>  <RECORDED_ENDPOINT>
IC50

>  <OBSERVED>
1220 nM

$$$$
>  <COMPOUND>
Cc1cc(-c2nc(N[C@@H]3CCN(S(C)(=O)=O)C[C@H]3O)ncc2F)cc2c1nc(C)n2C(C)C

>  <RECORDED_ENDPOINT>
IC50

>  <OBSERVED>
1140 nM

$$$$
>  <COMPOUND>
CC(C)n1c([C@H](C)O)nc2cc(F)c(-c3nc(N[C@@H]4CCOC[C@H]4O)ncc3Cl)cc21

>  <RECORDED_ENDPOINT>
IC50

>  <OBSERVED>
108 nM

$$$$
>  <COMPOUND>
CC(C)n1c(C(F)F)nc2c(F)cc(-c3nc(N[C@@H]4CCN(S(C)(=O)=O)C[C@H]4O)ncc3Cl)cc21

>  <RECORDED_ENDPOINT>
IC50

>  <OBSERVED>
238 nM

$$$$
>  <COMPOUND>
CCS(=O)(=O)N1CC[C@@H](Nc2ncc(Cl)c(-c3cc(F)c4nc(C)n(C5COC5)c4c3)n2)[C@H](O)C1

>  <RECORDED_ENDPOINT>
IC50

>  <OBSERVED>
311 nM

$$$$
>  <COMPOUND>
CC(C)(CN)n1cnc2c(F)cc(-c3nc(N[C@@H]4CCOC[C@H]4O)ncc3Cl)cc21

>  <RECORDED_ENDPOINT>
IC50

>  <OBSERVED>
1530 nM

$$$$
>  <COMPOUND>
CC(C)n1c(CC(N)C(F)F)nc2c(F)cc(-c3nc(N[C@@H]4CCOC[C@H]4O)ncc3Cl)cc21 (single isomer, unassigned) [Example A57]

>  <RECORDED_ENDPOINT>
IC50

>  <OBSERVED>
269 nM

$$$$
>  <COMPOUND>
CC(C)(C)n1cnc2c(F)cc(-c3nc(N[C@@H]4CCN(C(=O)C5(N)CC(F)(F)C5)C[C@H]4O)ncc3Cl)cc21

>  <RECORDED_ENDPOINT>
IC50

>  <OBSERVED>
377 nM

$$$$
>  <COMPOUND>
CC(C)n1c(CNC2COC2)nc2c(F)cc(-c3nc(N[C@@H]4CCN(S(C)(=O)=O)C[C@H]4O)ncc3Cl)cc21

>  <RECORDED_ENDPOINT>
IC50

>  <OBSERVED>
230 nM

$$$$
>  <COMPOUND>
Cn1nc2c(F)cc(-c3nc(N[C@@H]4CCOC[C@H]4O)ncc3Cl)cc2c1C(C)(C)N

>  <RECORDED_ENDPOINT>
IC50

>  <OBSERVED>
219 nM

$$$$
>  <COMPOUND>
CC(C)n1cnc2c(F)cc(-c3nc(N[C@@H]4CCN(C(=O)C5(N)CC(F)(F)C5)C[C@H]4O)ncc3Cl)cc21

>  <RECORDED_ENDPOINT>
IC50

>  <OBSERVED>
644 nM

$$$$
>  <COMPOUND>
CC(C)n1c(C2CNC2)nc2c(F)cc(-c3nc(N[C@@H]4CCOC[C@H]4O)ncc3Cl)cc21

>  <RECORDED_ENDPOINT>
IC50

>  <OBSERVED>
1350 nM

$$$$
>  <COMPOUND>
CC1(C)CCc2nc3c(F)cc(-c4nc(N[C@@H]5CCN(S(C)(=O)=O)C[C@H]5O)ncc4Cl)cc3n21

>  <RECORDED_ENDPOINT>
IC50

>  <OBSERVED>
57.6 nM

$$$$
>  <COMPOUND>
CNCC(=O)N1CC[C@@H](Nc2ncc(Cl)c(-c3cc(F)c4ncn(C(C)(C)C)c4c3)n2)[C@H](O)C1

>  <RECORDED_ENDPOINT>
IC50

>  <OBSERVED>
455 nM

$$$$
>  <COMPOUND>
CC(C(F)F)n1c(CO)nc2c(F)cc(-c3nc(N[C@@H]4CCN(S(C)(=O)=O)C[C@H]4O)ncc3Cl)cc21 (stereo partly shown)

>  <RECORDED_ENDPOINT>
IC50

>  <OBSERVED>
42.9 nM

$$$$
>  <COMPOUND>
CC(C)n1c(C(C)(C)O)nc2c(F)cc(-c3nc(N[C@@H]4CCOC[C@H]4O)ncc3F)cc21

>  <RECORDED_ENDPOINT>
IC50

>  <OBSERVED>
235 nM

$$$$
>  <COMPOUND>
Cc1nc2c(F)cc(-c3ccnc(N[C@@H]4CCN(S(C)(=O)=O)C[C@H]4O)n3)cc2n1C(C)C

>  <RECORDED_ENDPOINT>
IC50

>  <OBSERVED>
289 nM

$$$$
>  <COMPOUND>
CC(C)n1cnc2c(F)cc(-c3nc(N[C@@H]4CCN(C(=O)C5(N)CC5)C[C@H]4O)ncc3Cl)cc21

>  <RECORDED_ENDPOINT>
IC50

>  <OBSERVED>
745 nM

$$$$
>  <COMPOUND>
Cc1nc2cc(F)c(-c3nc(N[C@@H]4CCN(S(C)(=O)=O)C[C@H]4O)ncc3F)cc2n1C(C)C

>  <RECORDED_ENDPOINT>
IC50

>  <OBSERVED>
520 nM

$$$$

---

target: CDK4/Cyclin D1 (Homo sapiens (Human)); test: CDK4/Cyclin D1 mobility shift assay; details: activated CDK4/Cyclin D1, 3.5 mM ATP, Morrison fit; read-out: CDK4D1 Ki
Sequence (P11802 whole entry): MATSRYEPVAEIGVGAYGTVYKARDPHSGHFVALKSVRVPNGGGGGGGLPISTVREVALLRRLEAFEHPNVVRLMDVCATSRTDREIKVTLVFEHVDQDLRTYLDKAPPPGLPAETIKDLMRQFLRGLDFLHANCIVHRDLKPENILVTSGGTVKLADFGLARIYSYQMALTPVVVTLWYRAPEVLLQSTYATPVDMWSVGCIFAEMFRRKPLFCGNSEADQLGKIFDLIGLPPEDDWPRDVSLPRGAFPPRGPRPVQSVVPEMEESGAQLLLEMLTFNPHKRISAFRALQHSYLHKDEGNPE
Sequence (P24385 whole entry partner): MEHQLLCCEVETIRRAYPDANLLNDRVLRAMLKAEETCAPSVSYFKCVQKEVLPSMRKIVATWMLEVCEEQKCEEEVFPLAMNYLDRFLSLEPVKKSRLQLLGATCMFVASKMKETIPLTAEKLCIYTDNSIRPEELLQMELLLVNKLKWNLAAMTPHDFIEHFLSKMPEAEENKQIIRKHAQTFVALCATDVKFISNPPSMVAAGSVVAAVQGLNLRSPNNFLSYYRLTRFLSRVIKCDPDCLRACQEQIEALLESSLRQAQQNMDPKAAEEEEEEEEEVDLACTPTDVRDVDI
Okay, here is how we bin by Ki: label 0 (below 0.6 nM), label 1 (0.6 nM to below 2 nM), label 2 (2 nM or more)

>  <MOLECULE>
Cc1nc2cc(F)c(-c3nc(N[C@@H]4CCN(S(C)(=O)=O)C[C@H]4O)ncc3F)cc2n1C(C)C [Example A07]

>  <ASSIGNED_CLASS>
label 1

$$$$
>  <MOLECULE>
CC(C)NCc1nc2c(F)cc(-c3nc(N[C@@H]4CCN(S(C)(=O)=O)C[C@H]4O)ncc3Cl)cc2n1C(C)C [Example H10]

>  <ASSIGNED_CLASS>
label 0

$$$$
>  <MOLECULE>
CC1(C)CCc2nc3c(F)cc(-c4nc(N[C@@H]5CCN(S(C)(=O)=O)C[C@H]5O)ncc4Cl)cc3n21 [Example A09]

>  <ASSIGNED_CLASS>
label 0

$$$$
>  <MOLECULE>
CC(C)n1c(CN2C[C@@](C)(O)[C@@H]2C)nc2c(F)cc(-c3nc(N[C@@H]4CCOC[C@H]4O)ncc3Cl)cc21 [Example H04]

>  <ASSIGNED_CLASS>
label 1

$$$$
>  <MOLECULE>
CCc1nc2c(F)cc(-c3nc(N[C@@H]4CCN(S(C)(=O)=O)C[C@H]4O)ncc3Cl)cc2n1C1COC1 [Example A71]

>  <ASSIGNED_CLASS>
label 1

$$$$
>  <MOLECULE>
COc1cnc(N[C@@H]2CCN(S(C)(=O)=O)C[C@H]2O)nc1-c1cc(F)c2nc(C)n(C(C)C)c2c1 [Example A82]

>  <ASSIGNED_CLASS>
label 2

$$$$
>  <MOLECULE>
CC(C)n1c(C2CNC2)nc2c(F)cc(-c3nc(N[C@@H]4CCOC[C@H]4O)ncc3Cl)cc21 [Example C02]

>  <ASSIGNED_CLASS>
label 2

$$$$
>  <MOLECULE>
CC(N)c1nc2c(F)cc(-c3nc(N[C@@H]4CCN(S(C)(=O)=O)C[C@H]4O)ncc3Cl)cc2n1C(C)C (single isomer, unassigned) [Example A48]

>  <ASSIGNED_CLASS>
label 0

$$$$
>  <MOLECULE>
CC(C)n1cnc2c(F)cc(-c3nc(N[C@@H]4CCN(C(=O)C[C@H](N)C(F)(F)F)C[C@H]4O)ncc3Cl)cc21 [Example F31]

>  <ASSIGNED_CLASS>
label 2

$$$$
>  <MOLECULE>
CC(C)n1c(CN2CC(C)(O)C2)nc2c(F)cc(-c3nc(N[C@@H]4CCOC[C@H]4O)ncc3Cl)cc21 [Example H01]

>  <ASSIGNED_CLASS>
label 2

$$$$
>  <MOLECULE>
C[C@H](O)C(=O)N1CC[C@@H](Nc2ncc(Cl)c(-c3cc(F)c4ncn(C(C)(C)C)c4c3)n2)[C@H](O)C1 [Example F21]

>  <ASSIGNED_CLASS>
label 0

$$$$
>  <MOLECULE>
CC1CNCc2nc3c(F)cc(-c4nc(N[C@@H]5CCOC[C@H]5O)ncc4Cl)cc3n21 (single isomer, unassigned) [Example A56]

>  <ASSIGNED_CLASS>
label 1

$$$$
>  <MOLECULE>
Cc1nc2ncc(-c3nc(N[C@@H]4CCN(S(C)(=O)=O)C[C@H]4O)ncc3Cl)cc2n1C(C)C [Example A85]

>  <ASSIGNED_CLASS>
label 2

$$$$
>  <MOLECULE>
Cc1nc2c(F)cc(-c3nc(N[C@@H]4CCOC[C@H]4O)ncc3Cl)cc2n1C(C)(C)CN [Example A52]

>  <ASSIGNED_CLASS>
label 2

$$$$
>  <MOLECULE>
CN1Cc2nc3c(F)cc(-c4nc(N[C@@H]5CCOC[C@H]5O)ncc4Cl)cc3n2C(C)(C)C1 [Example A22]

>  <ASSIGNED_CLASS>
label 2

$$$$
>  <MOLECULE>
CC(C)n1c(CN)nc2c(F)cc(-c3nc(N[C@@H]4CCOC[C@H]4O)ncc3Cl)cc21 [Example A54]

>  <ASSIGNED_CLASS>
label 2

$$$$
>  <MOLECULE>
CC(C)(C)n1cnc2c(F)cc(-c3nc(N[C@@H]4CCN(C(=O)C5(F)CNC5)C[C@H]4O)ncc3Cl)cc21 [Example F26]

>  <ASSIGNED_CLASS>
label 0

$$$$
>  <MOLECULE>
Cc1nc2c(F)cc(-c3nc(N[C@@H]4CCN(S(C)(=O)=O)C[C@H]4O)ncc3F)cc2n1C1CNC1 [Example A88]

>  <ASSIGNED_CLASS>
label 2

$$$$
>  <MOLECULE>
Cc1nc2c(F)cc(-c3nc(N[C@@H]4CCN(S(C)(=O)=O)C[C@H]4O)ncc3C#N)cc2n1C(C)C [Example B01]

>  <ASSIGNED_CLASS>
label 0

$$$$
>  <MOLECULE>
Cc1nc2ccc(-c3nc(N[C@@H]4CCN(S(C)(=O)=O)C[C@H]4O)ncc3Cl)nc2n1C(C)C [Example A86]

>  <ASSIGNED_CLASS>
label 2

$$$$
>  <MOLECULE>
CC(C)c1c2cc(-c3nc(N[C@@H]4CCN(S(C)(=O)=O)C[C@H]4O)ncc3Cl)ccc2nn1C [Example A28]

>  <ASSIGNED_CLASS>
label 0

$$$$
>  <MOLECULE>
CC(C)n1c([C@@H](C)O)nc2c(F)cc(-c3nc(N[C@@H]4CCOC[C@H]4O)ncc3Cl)cc21 [Example A13]

>  <ASSIGNED_CLASS>
label 1

$$$$
>  <MOLECULE>
CC(C)n1c(CNC2COC2)nc2c(F)cc(-c3nc(N[C@@H]4CCOC[C@H]4O)ncc3Cl)cc21 [Example H05]

>  <ASSIGNED_CLASS>
label 2

$$$$
